- target_of_assay: 4'-phosphopantetheinyl transferase Sfp (Bacillus subtilis (strain 168)) (UniProt P39135)
- assay_protocol: qHTS Assay for Inhibitors of Bacillus subtilis Sfp phosphopantetheinyl transferase (PPTase): Label Free Assay for SAR
- run_parameters: purified Sfp with carrier protein, gel densitometry, 30 min
Calls of active or inactive are those of the source. Calls come from the whole dose curve.
Choose the fitting class; nothing outside 1 for active, -1 for inactive is accepted.

A selection of reference data follows.
C(=C1\Nn2c(COc3ccccc3)nnc2S1)/c1ccccc1 : 1
CC(C)(C)Cc1nnc(NC(=O)CSc2ccccc2)s1 : -1
CN(C)c1ccc(C(=S)N2CCN(Cc3ccccc3)CC2)cc1 : 1
CCc1c(C)sc(NC(=O)C2CCCCC2C(=O)O)c1C(N)=O (centres undefined) : -1
O=C(Nc1nnc(COc2ccc(Cl)cc2)s1)c1cccs1 : 1
O=C(Nc1nnc(COc2ccc(Cl)cc2)s1)c1ccco1 : 1

-- ask Name the outcome recorded for Cc1ccnc(NC(=S)N2CCN(c3ccc(Br)cc3)CC2)c1 in the assay.
-- reply 1

-- ask Next: COc1ccc(N2CCN(C(=S)Nc3cc(C)ccn3)CC2)cc1
-- reply 1

-- ask Next: S=C(Nc1ccccn1)c1ccccn1
-- reply -1
